Values compiled from PubChem BioAssay (EPA / NIEHS).

# Read-out: CYP2C9 (gene 1559)
# experimental-details: LTEA_HepaRG_CYP2C9: Life Technologies and Expression Analysis (LTEA) Assay for CYP2C9 using HepaRG (AID 2283484)
# test-context: mRNA level, 48 h; actives raise or lower the signal
Activity calls are given as the source filed them. Rule for the calls: active = hit-call score of the fitted dose curve at least 0.9, where 1 is the maximum; inactive = score below 0.9.
Hello, when you answer, please use one of the following outcomes: TRUE (active), FALSE (inactive)

[
  {
    "compound": "O=c1ccc(=O)[nH][nH]1",
    "class-name": "FALSE"
  }
]

Exercise: How was `CCCCOC(=O)[C@@H](C)Oc1ccc(Oc2ccc(C#N)cc2F)cc1` classified in this test?
Key: FALSE

Exercise: // return assay outcome for CCOP(=O)(NC(C)C)Oc1ccc(SC)c(C)c1 (configuration not stated)
Key: FALSE

Exercise: How did this test come out for `CN(C)[C@@H]1C(=O)C(C(N)=O)=C(O)[C@@]2(O)C(=O)C3=C(O)c4c(O)cccc4[C@@](C)(O)[C@H]3[C@H](O)[C@@H]12` ?
Key: FALSE

Exercise: // return assay outcome for `Nc1c(Cl)cc([N+](=O)[O-])cc1Cl`
Key: TRUE

Exercise: Recorded call for `CON=C(C(=O)OC)c1ccccc1CON=C(C)c1cccc(C(F)(F)F)c1` ?
Key: FALSE

Exercise: Which result was noted for this compound in the test: `CCCCOC(=O)c1ccccc1C(=O)O`
Key: FALSE
